Test: in vitro
Settings: mouse, Mean CC50 ± SD, +Irr
Protocol: An in vitro BALB 3T3 Neutral Red Uptake assay was used to determine the cytotoxicity/phototoxicity of the peptides. Cytotoxicity of peptide analogs was calculated as a percentage relative to the negative control. […] Photo irritation factor (PIF) was used to assess the phototoxic potential of the peptide analogs. […] Mouse embryonic fibroblasts (BALB 3T3) were used to perform the cytotoxicity and phototoxicity tests. […] Cell viability was measured using the BALB 3T3 neutral red uptake test. […]
Where a SMILES comes first, the peptide text is derived from it. [ ]: non-standard residue; d: D form. Dab = NCC[C@H](N)C(=O)O; Dap = NC[C@H](N)C(=O)O
Response field label: string, one of satisfied (CC50 strictly below 100 µM) or not satisfied.

Answered cases to consult:
CC[C@H](C)[C@H](NC(=O)[C@H](CCCCN)NC(=O)[C@H](CCN)NC(=O)[C@@H](NC(=O)[C@@H](NC(=O)[C@H](CC(=O)O)NC(=O)[C@H](Cc1ccccc1)NC(=O)[C@H](CC(C)C)NC(=O)CN)[C@@H](C)CC)[C@@H](C)CC)C(=O)N[C@@H](C)C(=O)N[C@@H](CCC(=O)O)C(=O)N[C@@H](CO)C(=O)N[C@@H](Cc1ccccc1)C(N)=O [EH [Dab]^7] (H-GLFDII[Dab]KIAESF-NH2); not satisfied
CC[C@H](C)[C@H](NC(=O)[C@H](CCN)NC(=O)[C@H](CCCCN)NC(=O)[C@@H](NC(=O)[C@@H](NC(=O)[C@H](CC(=O)O)NC(=O)[C@H](Cc1ccccc1)NC(=O)[C@H](CC(C)C)NC(=O)CN)[C@@H](C)CC)[C@@H](C)CC)C(=O)N[C@@H](C)C(=O)N[C@@H](CCC(=O)O)C(=O)N[C@@H](CO)C(=O)N[C@@H](Cc1ccccc1)C(N)=O [EH [Dab]^8] (H-GLFDIIK[Dab]IAESF-NH2); satisfied

is_below(CC50, 100 µM) for CC[C@H](C)[C@H](NC(=O)[C@H](CCN)NC(=O)[C@H](CCN)NC(=O)[C@@H](NC(=O)[C@@H](NC(=O)[C@H](CC(=O)O)NC(=O)[C@H](Cc1ccccc1)NC(=O)[C@H](CC(C)C)NC(=O)CN)[C@@H](C)CC)[C@@H](C)CC)C(=O)N[C@@H](C)C(=O)N[C@@H](CCC(=O)O)C(=O)N[C@@H](CO)C(=O)N[C@@H](Cc1ccccc1)C(N)=O [EH [Dab]^7,8] (H-GLFDII[Dab][Dab]IAESF-NH2) ?
not satisfied

is_below(CC50, 100 µM) for CN(C)CCCN1c2ccccc2Sc2ccc(Cl)cc21 [Chlorpromazine, reference compound] ?
satisfied

is_below(CC50, 100 µM) for CC[C@H](C)[C@H](NC(=O)[C@H](CN)NC(=O)[C@H](CN)NC(=O)[C@@H](NC(=O)[C@@H](NC(=O)[C@H](CC(=O)O)NC(=O)[C@H](Cc1ccccc1)NC(=O)[C@H](CC(C)C)NC(=O)CN)[C@@H](C)CC)[C@@H](C)CC)C(=O)N[C@@H](C)C(=O)N[C@@H](CCC(=O)O)C(=O)N[C@@H](CO)C(=O)N[C@@H](Cc1ccccc1)C(N)=O [EH [Dap]^7,8] (H-GLFDII[Dap][Dap]IAESF-NH2) ?
not satisfied
